Below is a list of entries, each paired with its recorded MIC90 LORA/MABA value.
# Test system: non-replicating cultures of M. tuberculosis H37Rv transformed with lux ABCDE
# PROTOCOL_NOTES: microbe, parasite or virus in culture
# Assay type: cell-based, Mycobacterium tuberculosis
# SETTINGS: ratio of LORA MIC90 to MABA MIC90
Please reply with the value in numeric form only.

COMPOUND	MIC90 LORA/MABA
CO[C@H]1/C=C/O[C@@]2(C)Oc3c(C)c(O)c4c(=O)c(c5oc6cccc(OCCCCN7CCN(C)CC7)c6nc-5c4c3C2=O)NC(=O)/C(C)=C\C=C\[C@H](C)[C@H](O)[C@@H](C)[C@@H](O)[C@@H](C)[C@H](OC(C)=O)[C@@H]1C [Compound 5a]	2.0
CO[C@H]1/C=C/O[C@@]2(C)Oc3c(C)c(O)c4c(=O)c(c5oc6cc(N7CCC(CC(=O)O)CC7)cc(OCc7ccc(CN8CCOCC8)cc7)c6nc-5c4c3C2=O)NC(=O)/C(C)=C\C=C\[C@H](C)[C@H](O)[C@@H](C)[C@@H](O)[C@@H](C)[C@H](OC(C)=O)[C@@H]1C [Compound 17l]	4.5

Turning now to a further compound:
Input line: // MIC90 LORA/MABA lookup, key: CO[C@H]1/C=C/O[C@@]2(C)Oc3c(C)c(O)c4c(=O)c(c5oc6cccc(OCc7ccc(CN8CCOCC8)cc7)c6nc-5c4c3C2=O)NC(=O)/C(C)=C\C=C\[C@H](C)[C@H](O)[C@@H](C)[C@@H](O)[C@@H](C)[C@H](OC(C)=O)[C@@H]1C [Compound 16d]
Output line: 8.4
